tested on: RXRa homodimer (NR concentration 180 nM); assay: PBM binding z-score (relative to random genomic background probes); higher = stronger binding; sequences stand for … in GC…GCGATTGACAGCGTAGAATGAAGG
Field: PBM binding z-score. Provide a value for each of the sequences that follow.

Lookup: Sample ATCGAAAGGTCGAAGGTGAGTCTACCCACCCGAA — what was its PBM binding z-score?
Found: 5.11

Lookup: Sample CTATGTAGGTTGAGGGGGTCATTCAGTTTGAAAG — what was its PBM binding z-score?
Found: 5.59

Lookup: Sample ATCGAAAGGTCGTGAGGTGAGTTTACAGAAAGGC — what was its PBM binding z-score?
Found: 5.37

Lookup: Sample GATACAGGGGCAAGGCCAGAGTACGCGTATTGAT — what was its PBM binding z-score?
Found: 0.544

Lookup: Sample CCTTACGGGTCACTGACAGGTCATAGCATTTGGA — what was its PBM binding z-score?
Found: 6.67

Lookup: Sample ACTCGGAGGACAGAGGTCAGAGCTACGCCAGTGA — what was its PBM binding z-score?
Found: 4.17

Lookup: Sample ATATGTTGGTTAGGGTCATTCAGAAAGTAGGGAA — what was its PBM binding z-score?
Found: 5.05

Lookup: Sample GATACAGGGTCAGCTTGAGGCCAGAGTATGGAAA — what was its PBM binding z-score?
Found: 4.55

Lookup: Sample ATATATAGGTTAGGGTCATTCAGAAAGTAGGGAA — what was its PBM binding z-score?
Found: 5.33

Lookup: Sample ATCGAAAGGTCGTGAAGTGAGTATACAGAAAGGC — what was its PBM binding z-score?
Found: 4.35

Lookup: Sample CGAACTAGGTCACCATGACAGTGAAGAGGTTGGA — what was its PBM binding z-score?
Found: 3.17

Lookup: Sample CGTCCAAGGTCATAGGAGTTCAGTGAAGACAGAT — what was its PBM binding z-score?
Found: 6.23
